# subject_of_test: Phosphatidylinositol 4,5-bisphosphate 3-kinase catalytic subunit delta isoform (Homo sapiens) (UniProt O00329)
# Sequence (whole entry): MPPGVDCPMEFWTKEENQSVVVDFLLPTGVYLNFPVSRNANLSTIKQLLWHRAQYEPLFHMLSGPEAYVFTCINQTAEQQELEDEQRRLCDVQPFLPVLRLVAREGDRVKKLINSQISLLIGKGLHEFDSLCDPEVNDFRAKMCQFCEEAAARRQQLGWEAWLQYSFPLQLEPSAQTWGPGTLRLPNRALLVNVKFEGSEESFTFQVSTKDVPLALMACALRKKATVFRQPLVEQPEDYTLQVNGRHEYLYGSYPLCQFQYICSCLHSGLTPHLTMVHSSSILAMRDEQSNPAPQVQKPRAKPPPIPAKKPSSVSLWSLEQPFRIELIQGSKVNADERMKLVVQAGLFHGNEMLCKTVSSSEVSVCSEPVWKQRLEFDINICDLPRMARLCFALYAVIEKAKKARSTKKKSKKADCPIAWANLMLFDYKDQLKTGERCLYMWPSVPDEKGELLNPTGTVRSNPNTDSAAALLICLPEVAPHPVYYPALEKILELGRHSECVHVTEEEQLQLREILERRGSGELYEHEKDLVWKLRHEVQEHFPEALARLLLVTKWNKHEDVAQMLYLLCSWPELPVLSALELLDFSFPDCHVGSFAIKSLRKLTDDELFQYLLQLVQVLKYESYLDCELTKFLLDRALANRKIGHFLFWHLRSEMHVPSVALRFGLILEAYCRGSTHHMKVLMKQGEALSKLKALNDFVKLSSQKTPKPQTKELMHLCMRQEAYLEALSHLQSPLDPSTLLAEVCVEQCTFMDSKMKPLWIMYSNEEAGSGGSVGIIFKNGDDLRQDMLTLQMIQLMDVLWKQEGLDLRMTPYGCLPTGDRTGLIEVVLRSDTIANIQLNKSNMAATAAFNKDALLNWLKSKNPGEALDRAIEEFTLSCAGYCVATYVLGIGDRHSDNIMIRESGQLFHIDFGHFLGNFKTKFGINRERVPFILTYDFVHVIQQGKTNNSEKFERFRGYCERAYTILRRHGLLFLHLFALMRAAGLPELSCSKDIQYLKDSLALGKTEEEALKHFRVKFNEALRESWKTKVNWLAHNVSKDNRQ
# method_description: Inhibition of N-terminal His6-tagged recombinant full length human PI3Kdelta expressed in baculovirus infected Sf21 insect cells at 1 uM by HTRF assay relative to control
Classification field: fulfilled = inhibition at or over 7%; not fulfilled = inhibition under 7%.

>>> df
                        structure_as_smiles  classification
0  Cc1cc(N2[C@@H](C)CC[C@H]2c2nc3cccc(Cl)c3c(=O)n2-c2ccccc2)nc(N)n1       fulfilled
1  C[C@H]1CC[C@@H](c2nc3cccc(Cl)c3c(=O)n2N2CCOCC2)N1c1nc(N)nc(N)c1C#N       fulfilled
2  C[C@H]1CC[C@@H](c2nc3cccc(Cl)c3c(=O)n2N2CCOCC2)N1c1nc(N)nc2[nH]cnc12   not fulfilled
3  N#Cc1c(N)nc(N)nc1N1[C@H](c2nc3cccc(Cl)c3c(=O)n2-c2cc(F)cc(F)c2)C[C@@H]2CCCC[C@@H]21       fulfilled
4  C[C@H]1CC[C@@H](c2nc3cccc(Cl)c3c(=O)n2-c2ccccc2)N1c1nc(F)nc2[nH]cnc12       fulfilled
5  N#Cc1c(N)nc(N)nc1N1[C@H](c2nc3cccc(F)c3c(=O)n2-c2cc(F)cc(F)c2)C[C@@H]2CCCC[C@@H]21       fulfilled

----------
# pIC50 per entry
# subject_of_test: Phosphatidylinositol 4,5-bisphosphate 3-kinase catalytic subunit gamma isoform (Homo sapiens, UniProt P48736)
# Sequence (P48736 whole entry, canonical isoform): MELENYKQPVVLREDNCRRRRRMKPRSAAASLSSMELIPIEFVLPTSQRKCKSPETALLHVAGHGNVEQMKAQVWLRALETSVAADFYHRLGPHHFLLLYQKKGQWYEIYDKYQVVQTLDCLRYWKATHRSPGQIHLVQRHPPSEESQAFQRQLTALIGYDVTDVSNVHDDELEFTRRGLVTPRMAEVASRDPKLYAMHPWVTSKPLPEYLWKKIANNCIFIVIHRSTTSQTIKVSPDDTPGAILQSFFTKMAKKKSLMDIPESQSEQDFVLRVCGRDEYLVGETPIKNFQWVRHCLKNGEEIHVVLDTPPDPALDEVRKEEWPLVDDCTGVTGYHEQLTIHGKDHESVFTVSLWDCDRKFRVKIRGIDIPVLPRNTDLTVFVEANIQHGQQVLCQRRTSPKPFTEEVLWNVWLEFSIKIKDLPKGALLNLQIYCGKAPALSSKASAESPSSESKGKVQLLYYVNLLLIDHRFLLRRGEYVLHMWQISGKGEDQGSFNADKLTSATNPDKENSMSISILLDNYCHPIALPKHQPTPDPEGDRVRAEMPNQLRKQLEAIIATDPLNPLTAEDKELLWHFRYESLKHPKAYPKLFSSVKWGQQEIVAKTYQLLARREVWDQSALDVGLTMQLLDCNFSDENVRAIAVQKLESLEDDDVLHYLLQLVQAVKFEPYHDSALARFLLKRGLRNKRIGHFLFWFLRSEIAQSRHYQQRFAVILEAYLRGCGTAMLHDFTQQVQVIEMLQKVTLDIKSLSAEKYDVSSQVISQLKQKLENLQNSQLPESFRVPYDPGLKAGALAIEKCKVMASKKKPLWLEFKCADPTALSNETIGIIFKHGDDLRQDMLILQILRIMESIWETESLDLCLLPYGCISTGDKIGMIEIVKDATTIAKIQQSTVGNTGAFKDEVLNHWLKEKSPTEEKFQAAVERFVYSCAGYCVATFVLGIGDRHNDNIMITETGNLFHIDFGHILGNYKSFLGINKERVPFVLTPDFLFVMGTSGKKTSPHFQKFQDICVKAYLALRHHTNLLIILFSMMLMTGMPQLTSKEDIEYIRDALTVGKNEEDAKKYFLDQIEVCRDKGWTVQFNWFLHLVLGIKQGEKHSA
# method_description: Inhibition of N-terminal His6-tagged recombinant full length human PI3Kgamma expressed in baculovirus infected Sf21 insect cells incubated for 30 mins by HTRF assay
pIC50: −log10 of the molar value.
parameter_measured: pIC50

                        structure_as_smiles  test_result
0  N#Cc1c(N)nc(N)nc1N1[C@H](c2nc3cccc(F)c3c(=O)n2-c2cccnc2)C[C@@H]2CCCC[C@@H]21         3.44
1  C[C@H]1CC[C@@H](c2nc3cccc(Cl)c3c(=O)n2-c2cccnc2)N1c1nc(N)nc(N)c1C#N         4.80
2  N#Cc1c(N)nc(N)nc1N1[C@H](c2nc3cccc(Cl)c3c(=O)n2N2CCOCC2)C[C@@H]2CCCC[C@@H]21         3.51
3  C[C@H]1CC[C@@H](c2nc3c(F)cc(F)cc3c(=O)n2-c2cccnc2)N1c1nc(N)nc(N)c1C#N         4.52
4  COc1cncc(-c2cccc3nc([C@@H]4CC[C@H](C)N4c4nc(N)nc(N)c4C#N)n(-c4cccc(F)c4)c(=O)c23)c1         5.05
5  C[C@H]1CC[C@@H](c2nc3cccc(Cl)c3c(=O)n2-c2cccc(F)c2)N1c1nc(N)nc(N)c1C#N         4.77
6  N#Cc1c(N)nc(N)nc1N1[C@H](c2nc3cccc(Cl)c3c(=O)n2-c2cccc(F)c2)C[C@@H]2CCCC[C@@H]21         3.55

----------
Measured inhibition values are reported for all entries that follow.
# subject_of_test: Phosphatidylinositol 4,5-bisphosphate 3-kinase catalytic subunit beta isoform (Homo sapiens, UniProt P42338)
# Sequence (P42338 whole entry, looked up, canonical isoform): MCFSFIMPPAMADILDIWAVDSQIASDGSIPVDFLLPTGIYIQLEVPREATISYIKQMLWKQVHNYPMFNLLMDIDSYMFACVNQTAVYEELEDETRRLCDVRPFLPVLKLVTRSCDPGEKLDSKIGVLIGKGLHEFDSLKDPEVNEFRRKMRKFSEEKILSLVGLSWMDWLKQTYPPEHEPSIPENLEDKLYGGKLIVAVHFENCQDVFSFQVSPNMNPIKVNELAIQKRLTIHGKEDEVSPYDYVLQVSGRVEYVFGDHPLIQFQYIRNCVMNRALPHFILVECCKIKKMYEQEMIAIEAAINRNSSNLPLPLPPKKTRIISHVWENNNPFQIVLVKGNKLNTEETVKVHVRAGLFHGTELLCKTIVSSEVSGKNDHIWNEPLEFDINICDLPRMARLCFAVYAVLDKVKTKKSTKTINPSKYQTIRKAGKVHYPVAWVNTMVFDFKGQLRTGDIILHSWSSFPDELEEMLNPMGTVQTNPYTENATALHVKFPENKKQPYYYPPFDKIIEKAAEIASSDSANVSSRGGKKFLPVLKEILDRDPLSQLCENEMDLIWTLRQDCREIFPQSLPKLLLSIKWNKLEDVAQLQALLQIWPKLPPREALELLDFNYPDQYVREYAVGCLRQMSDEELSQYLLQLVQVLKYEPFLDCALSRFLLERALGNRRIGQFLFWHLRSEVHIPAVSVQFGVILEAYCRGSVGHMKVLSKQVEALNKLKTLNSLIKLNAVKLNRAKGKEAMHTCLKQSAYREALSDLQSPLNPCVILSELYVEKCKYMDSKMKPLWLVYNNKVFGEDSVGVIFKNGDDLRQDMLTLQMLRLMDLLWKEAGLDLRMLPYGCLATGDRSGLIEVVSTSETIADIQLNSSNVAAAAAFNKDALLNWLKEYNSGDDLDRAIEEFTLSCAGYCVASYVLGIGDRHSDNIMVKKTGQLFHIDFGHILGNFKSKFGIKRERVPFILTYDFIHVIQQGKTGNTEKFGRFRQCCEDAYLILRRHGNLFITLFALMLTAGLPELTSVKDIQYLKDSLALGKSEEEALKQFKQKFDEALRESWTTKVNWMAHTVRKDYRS
# method_description: Inhibition of N-terminal His6-tagged recombinant full length human PI3Kbeta expressed in baculovirus infected Sf21 insect cells at 1 uM by HTRF assay relative to control
parameter_measured: inhibition

>>> df
                         structure_as_smiles  test_result
 0  N#Cc1c(N)nc(N)nc1N1[C@H](c2nc3cccc(F)c3c(=O)n2-c2cc(F)cc(F)c2)C[C@@H]2CCCC[C@@H]21          98%
 1  COc1cncc(-c2cccc3nc([C@@H]4CC[C@H](C)N4c4nc(N)nc(N)c4C#N)n(-c4cccnc4)c(=O)c23)c1          54%
 2  Cc1ccc(C#Cc2cccc3nc([C@@H]4CC[C@H](C)N4c4nc(N)nc(N)c4C#N)n(-c4ccccc4)c(=O)c23)cc1          78%
 3  C[C@H]1CC[C@@H](c2nc3cccc(Cl)c3c(=O)n2N2CCOCC2)N1c1nc(N)nc2[nH]cnc12          53%
 4  C[C@H]1CC[C@@H](c2nc3cccc(-c4cncnc4)c3c(=O)n2-c2ccccc2)N1c1nc(N)nc(N)c1C#N          49%
 5  CC(C)n1cc(-c2cccc3nc([C@@H]4CC[C@H](C)N4c4nc(N)nc(N)c4C#N)n(-c4ccccc4)c(=O)c23)cn1          28%
 6  C[C@H]1CC[C@@H](c2nc3cccc(C#Cc4ccccc4)c3c(=O)n2-c2ccccc2)N1c1nc(N)nc(N)c1C#N          11%
 7  C[C@H]1CC[C@@H](c2nc3cccc(Cl)c3c(=O)n2-c2ccccc2)N1c1nc(F)nc2[nH]cnc12          -1%
 8  COc1ccc(-c2cccc3nc([C@@H]4CC[C@H](C)N4c4nc(N)nc(N)c4C#N)n(-c4ccccc4)c(=O)c23)cc1          44%
 9  C[C@H]1CC[C@@H](c2nc3cccc(Cl)c3c(=O)n2-c2ccccc2)N1c1nc(N)nc2[nH]ccc12          84%
10  C[C@H]1CC[C@@H](c2nc3cccc(Cl)c3c(=O)n2-c2ccccc2)N1c1nc(N)nc2[nH]cnc12          31%
11  N#Cc1c(N)nc(N)nc1N1[C@H](c2nc3cccc(Cl)c3c(=O)n2-c2cc(F)cc(F)c2)C[C@@H]2CCCC[C@@H]21          84%
12  COc1cncc(-c2cccc3nc([C@@H]4CC[C@H](C)N4c4nc(N)nc(N)c4C#N)n(-c4ccccc4)c(=O)c23)c1          19%
13  Cc1cc(N2[C@@H](C)CC[C@H]2c2nc3cccc(Cl)c3c(=O)n2-c2ccccc2)nc(N)n1         105%
14  CCn1cc(-c2cccc3nc([C@@H]4CC[C@H](C)N4c4nc(N)nc(N)c4C#N)n(-c4ccccc4)c(=O)c23)cn1           6%
15  C[C@H]1CC[C@@H](c2nc3cccc(-c4cnn(C(F)F)c4)c3c(=O)n2-c2ccccc2)N1c1nc(N)nc(N)c1C#N          46%
16  C[C@H]1CC[C@@H](c2nc3cccc(-c4cnn(C5CC5)c4)c3c(=O)n2-c2cccc(F)c2)N1c1nc(N)nc(N)c1C#N          59%

----------
# method_description: Tmax in Sprague-Dawley rat at 5 mg/kg, po measured upto 24 hrs by LC-MS/MS analysis
# Assay type: ADME, organism-based
# details: in vivo
parameter_measured: Tmax (h)

>>> print(df.to_string())
                        structure_as_smiles  test_result
0  C[C@H]1CC[C@@H](c2nc3cccc(Cl)c3c(=O)n2-c2cccnc2)N1c1nc(N)nc(N)c1C#N         3.33
